Value source: ChEMBL document CHEMBL1201862

Test system: UO-31
Assay: NCI tumour cell line growth inhibition, 48 h
Calls of active or inactive are those of the source. Rule as the data show it: active = GI50 up to about 1.1 µM and inactive = higher.
Outcome codes: active, inactive

{"columns": ["Compound", "Assay system", "Category"],
 "data": [
  ["Oc1ccccc1/C=N/N1C(=S)N(C23CC4CC(CC(C4)C2)C3)C(=N\\c2ccccc2)/C1=N/c1ccccc1", "UO-31", "inactive"],
  ["O=[N+]([O-])c1ccc(Cl)cc1N/N=C/c1cccc2cccnc12", "UO-31", "inactive"],
  ["S=c1c2nc[nH]c2ncn1CCSC1=NC=NC2=NC=NC21 (stereo not drawn)", "UO-31", "inactive"],
  ["S=C1/C(=N/c2ccccc2)N(C2CCCCC2)/C(=N\\C2CCCCC2)N1c1ccccc1", "UO-31", "inactive"],
  ["CCc1nc(Cl)nc(Cl)c1Cl", "UO-31", "active"],
  ["C=CC(C)(C)c1cc([C@@H]2COc3cc(O)ccc3C2=O)c(O)c(O)c1OC", "UO-31", "inactive"],
  ["O=C1CCC2(c3ccc(Cl)cc3)Nc3ncncc3N12 (stereo not drawn)", "UO-31", "inactive"],
  ["Cc1c(N2C(=O)/C(=C/c3ccc(Cl)cc3)N=C2c2ccccc2)c(=O)n(-c2ccccc2)n1C", "UO-31", "inactive"],
  ["CCOC(=O)Cc1c(C)c2ccc(OC(C)=O)c(OC(C)=O)c2oc1=O", "UO-31", "inactive"],
  ["COc1ccc(C2ON(c3cccc(C)n3)CC=C2C)cc1 (stereo not drawn)", "UO-31", "inactive"],
  ["CO[C@@H](c1ccccc1)[C@H](O)[C@](O)(c1ccccc1)P(=O)(OC)OC", "UO-31", "inactive"],
  ["[N-]=[N+]=NC(CI)c1cn([C@H]2C[C@H](O)[C@@H](CO)O2)c(=O)[nH]c1=O (stereo partly drawn)", "UO-31", "inactive"],
  ["CC(C)(C)c1ccc(O)c(CN(Cc2cc(C(C)(C)C)ccc2O)C2CCCCC2)c1", "UO-31", "inactive"]
]}

----------
Test system: SF-295
Assay: NCI tumour cell line growth inhibition, 48 h
The source made the active and inactive calls. Cut-off read from the data, not from the text of the source: active = GI50 up to about 1.1 µM and inactive = higher.
Outcome codes: t for active, f for inactive

{"columns": ["Compound", "Assay system", "Category"],
 "data": [
  ["c1cn(C23C4C5C6C4C2C6C53)cn1 (stereo not drawn)", "SF-295", "f"],
  ["O=c1s[s+]([O-])c2ccccc12 (stereo not drawn)", "SF-295", "f"],
  ["COc1cc2c(c(OC)c1OC)-c1ccc(SC)c(=O)cc1[C@@H](NC(=O)c1ccc(F)cc1)CC2", "SF-295", "t"],
  ["Cc1c(NC(=S)N/N=C\\C(=N/NC(=S)Nc2c(C)n(C)n(-c3ccccc3)c2=O)c2ccccc2)c(=O)n(-c2ccccc2)n1C", "SF-295", "f"],
  ["COC1O[C@H]2CCN(C(=O)OCc3ccccc3)[C@H]2[C@H]1OCc1ccccc1 (stereo partly drawn)", "SF-295", "f"],
  ["C[C@]12CCC(=O)C=C1CC[C@@H]1[C@@H]2[C@@H](O)C[C@@]2(C)[C@H]1CC[C@]2(O)C(=O)COC(=O)C1CCCC1", "SF-295", "f"],
  ["CNC(=S)NNc1ncnc2c1ncn2-c1ccc(C)cc1", "SF-295", "f"],
  ["CC1=NN(C(=O)c2ccccc2O)C(=O)/C1=C/c1ccc(O)cc1", "SF-295", "t"],
  ["COc1cc(/C=C/C(=O)O)ccc1C(=O)OCc1ccccc1", "SF-295", "f"],
  ["O=C(O)c1cc2c(cc1CC(Cc1ccc3c(c1)CCC3)C(=O)O)CCC2 (stereo not drawn)", "SF-295", "f"],
  ["[O-][S+]1c2ccc(Cl)cc2CC(SSC2Cc3cc(Cl)ccc3[S+]([O-])c3ccccc32)c2ccccc21 (stereo not drawn)", "SF-295", "f"],
  ["C=CCN1C(N)=C(C#N)C(C#N)(C#N)C1CCC (stereo not drawn)", "SF-295", "f"],
  ["O=c1ccn(C2OC(COC3CCCCO3)C(OC3CCCCO3)C2OC2CCCCO2)c(=O)n1-c1ccccc1 (stereo not drawn)", "SF-295", "f"],
  ["O=C(O)c1ccccc1CC1Cc2ccc3c(c2C1=O)CCC3 (stereo not drawn)", "SF-295", "f"],
  ["COC(=O)c1cc2c3c(cc(N(C)C)c2[nH]1)N(C(=O)c1cc2cc(OC)c(OC)c(OC)c2[nH]1)CC3CCl (stereo not drawn)", "SF-295", "t"],
  ["C=CCN(C(=O)OC(C)(C)C)C1=CC2C(C)=CN(S(=O)(=O)c3ccccc3)C2C(OCc2ccccc2)=C1 (stereo not drawn)", "SF-295", "f"],
  ["N#CC1C(=O)NC2=C(CCOc3c2ccc2ccccc32)C1c1ccc(F)cc1 (stereo not drawn)", "SF-295", "f"],
  ["O=C(O)c1ccccc1NCn1c(=S)sc2ccccc21", "SF-295", "f"],
  ["Nc1ccc(S(=O)(=O)Nc2nccs2)cc1", "SF-295", "f"],
  ["COc1nc(C(=O)NNC(=O)c2nc(OC)c3ccccc3c2-c2ccccc2)c(-c2ccccc2)c2ccccc12", "SF-295", "f"],
  ["CC1CCCC(C(O)CC2CC(=O)N(c3ccccc3)C(=O)C2)C1=O (stereo not drawn)", "SF-295", "f"],
  ["O=[N+]([O-])c1ccc(Cl)cc1N/N=C/c1cccc2cccnc12", "SF-295", "f"],
  ["COC(=O)C1=C(O)c2cc3c(cc2[C@H](c2cc(OC)c(OC)c(OC)c2)C1)OCO3", "SF-295", "f"],
  ["CC(=O)Oc1ccc(Nn2c3ccccc3c3ccccc32)c(C)c1", "SF-295", "f"],
  ["COc1cc(/C=C/C(=O)CC(=O)/C=C/c2ccc(O)c(OC)c2)ccc1O", "SF-295", "f"],
  ["CC1(C)C(=O)C=CC2(C)C1CC(O)C1(C)C2CCC2(C)C(c3ccoc3)OC(=O)C3OC321 (stereo not drawn)", "SF-295", "f"],
  ["CNC(=O)OCc1nc(SC(C)C)n(C)c1COC(=O)NC", "SF-295", "f"],
  ["c1ccc(OCCSCCCCCCCCCCSCCOc2ccccc2)cc1", "SF-295", "f"]
]}
